Data provenance: the nanobody polyreactivity screen of Harvey et al. (2022)

# measurement notes: yeast display, Sf9 membrane polyspecificity reagent, FACS + sequencing; frameworks hold sequencing errors
parameter measured: polyreactivity (PSR sort gate)

[
  {
    "polymer sequence": "QVQLVESGGGLVQAGGSLRLSSAASGRTFYSNAMGWSRQAPGKERELVAAITSTDDSTYYADSVKGRFTISRDNAKNTVYLQMNSLKPEDTAVYYCNTDGLIAIRCVWWVEYDYWGQGTQVTVSS",
    "value": "low polyreactivity"
  },
  {
    "polymer sequence": "QVQLVESGGGLGQAGGSLRLSCAASGFIFGPYAMGWYRQARGKETELVAAISSSGGSTSYADSVKGRFTISRDNAKNTVYLQMNSLKPEDTAVYYCAARGRYRFYSNNYDYWGQGTQVTVSS",
    "value": "high polyreactivity"
  },
  {
    "polymer sequence": "QVQLVESGGGLVQAGGSLRLSCAASGSTFYYYTMGWYRQATGKERELVAAITYRGGSTYADSVKGRFTISRDNAKNTVYLQMNSLKPEDTAVYYCAAVRRHPTHYDYWGQGTQVTVSS",
    "value": "high polyreactivity"
  },
  {
    "polymer sequence": "QVQLVESGGGLVQAGGSLRLICAASGRIFRGNAMGWYRQAPGKERELVAAISSGGSTNYADSVKGRFTISRDNEKNTVYLQMNSLKPEDTAVYYCAASRVRSYFGRYYWGQGTQVTVSS",
    "value": "high polyreactivity"
  },
  {
    "polymer sequence": "QVQLVESGGGLDQAGGSLRLSCAASGRTFGYNAMGWYRQAPGKERELVAAINWSGASTYYADSVKGRFTISRDNAKNTVYLQMNSLKPEDTAVYYCAARRKRVSFFPEYDYWGQGTQVTVSS",
    "value": "low polyreactivity"
  },
  {
    "polymer sequence": "QVQLVESGGGLVQAGGSLRLSCAASGSTFTANALGWYRQAPGKERELVAAITKSGGDTYYADSVKGRFTISRDNAKNTVYLQMNSLKPEDTAVYYCAAESSYFVALTQFYTVEFYYWGQGTQVTVSS",
    "value": "low polyreactivity"
  },
  {
    "polymer sequence": "QVKLVVSGGGLVQAGGSLRLTCAASGRTFRRNAMGWYRQAPGKERELVAAISTSGGRTYYADSVKGRFTISRDNAKNTVYLQMNSLKAEDTAVYYCAADIPQTEGYWGQGTQVTVSS",
    "value": "low polyreactivity"
  },
  {
    "polymer sequence": "QVQLVESGGGLVQAGGSLRLSCAASGYIFERNAMGWYRQAPGKERELVAAITDDGDDTYYADSVKGRFTISRDNAKNTVYLQMNSLKPEETAVYYCAKDLYYGDYYYWGQGTQVTVSS",
    "value": "low polyreactivity"
  },
  {
    "polymer sequence": "QVQLVESGGRLVQAGGSLRLSCAASGSIFYYYAKGLYRKAPVTARELVAAISTRGGRTYYADSVKGRFTISRDNAKTTVYLQMNSLKPEDTAVYYCNVPYYLPSYLSGYDYWGQGTQVTVSS",
    "value": "low polyreactivity"
  },
  {
    "polymer sequence": "QGQLVESGGGLVQAGGSLRLTCSASGSTFDSYGMGWYRQAPGKERELVASISSRGGSTYYADSVKGRFTISRDTAKNTVYLQMNSLKPEDTAVYYCAADWLSWFHGYGMYYWGQGTQVTVSS",
    "value": "low polyreactivity"
  },
  {
    "polymer sequence": "QVQLVESGGGLVQAGGSLRLSCAACGFIFSSNAMGWYTPAPGNERELVAAITGGGGRTRYADSVKGRFTISRDNAKNSVYLQMNSLKPEDTAVYYCNTVYYVYYRSYSYKGDYWGQGTQVTVSS",
    "value": "high polyreactivity"
  }
]
